System: HeLa
Test Protocol: Primary qHTS to identify gynecologic anti-cancer compounds using libraries of approved drugs and bioactive compounds (AID 1345084); also: nearly all actives have a fitted effect of over 55% in size
Cond: Gynecologic cancer cell panel viability, ATPlite luminescence, 48 h; series mostly up to 57.5 µM
Records with an inconclusive call do not appear. Calls of active or inactive are those of the source. Calls follow the shape of the dose curve; as a rule, active = well fitted cell-killing curve with a large enough effect; inconclusive = small, poorly fitted or top-dose-only effect, or effect the other way; inactive = flat fitted curve, though single readings scatter.
Measured Attribute: outcome

1) NNc1ccccc1 | inactive
2) Clc1ccc(C(c2ccc(Cl)cc2)C(Cl)(Cl)Cl)cc1 | inactive
3) CN1C(=O)COc2c(C(=O)NC3CN4CCC3CC4)cc(Cl)cc21 (stereo not drawn) | inactive
